Target: T1, RTEL1 HHD2 (Homo sapiens, UniProt Q9NZ71-6 1056-1140)
T1 sequence: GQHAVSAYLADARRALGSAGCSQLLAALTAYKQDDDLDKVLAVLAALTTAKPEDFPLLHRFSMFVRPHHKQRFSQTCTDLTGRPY
Assay: NMR titration (TITAN); pH 7.4; NMR: 20 mM Tris-HCl pH 7.4, 50 mM NaCl, 2 mM DTT, 0.02% NaN3, 10% D2O, 25 C (one ssDNA-22 titration at pH 6.5); ITC: 10 mM potassium phosphate pH 6.5, 50 mM KCl, 0.02% NaN3, 25 C
Settings: protein: recombinant; tags: N-terminal 6xHis; blunt
readout-name: Kd (µM)
The reply should be a number in µM, with the unit left off.

I would be grateful if you could share the reported Kd for dsDNA-22 (dsDNA) DNA 1: AGGATTAGGATTAGGATTAGGA DNA 2: TCCTAATCCTAATCCTAATCCT . 19.7
